# assayedTarget: T1, TNF-α (UniProt P01375 77-233, limits assumed)
# T1 construct: also called tumor necrosis factor; ligand
# T1 sequence (P01375 77-233 limits assumed): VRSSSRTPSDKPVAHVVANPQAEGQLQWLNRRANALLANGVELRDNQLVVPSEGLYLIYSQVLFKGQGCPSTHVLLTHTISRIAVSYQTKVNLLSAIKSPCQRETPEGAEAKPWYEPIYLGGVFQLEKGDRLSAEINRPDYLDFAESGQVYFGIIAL
# experimentalProtocol: competition ELISA: sample vs plate-bound TNFRI190 for TNF-α, from IC50, relative to wild-type TNFRI126
# Experimental: Each well was washed three times with 300 μL of washing buffer (0.05% Tween-20, PBS, pH 7.4) and incubated at room temperature for 2 hours with 300 μL of a blocking buffer (5% skim milk, PBS, pH 7.4). Then, each well was washed as mentioned above. A sample of interest was diluted to concentrations of 500 nM, 125 nM, 31 nM, 7.8 nM, 1.9 nM, 0.48 nM, 0.12 nM, and 0.03 nM in series and loaded in an amount of 100 μL into each well in duplicate. […]
# Relative Affinity for Ligand (%) per record follows
Answer in %, number only, no unit symbol.

binder: TNFRI126-S47 (receptor, Met-TNFRI126 superlead mutant made in E. coli) MDSVCPQGKYIHPQNNSICCTKCHKGTYVYNDCPGPGQDTDCRECESGSFTAMENFLPGCLSCSKCRKEMGQVEISSCTVDRDTVCGCRKNQYRHYWSENLFQCFNCSLCLNGTVHLSCQEKQNTVC
Relative Affinity for Ligand (%): 501
--
binder: TNFRI126-S36 (receptor, Met-TNFRI126 superlead mutant made in E. coli) MDSVCPQGKYIHPQNNSICCTKCHKGTYVYNDCPGPGQDTDCRECESGSFTAMENFLPACLSCSKCRKEMGQVEISSCTVDRDTVCGCRKNQYRHYWSENLFQCFNCSLCLNGTVHLSCQEKQNTVC
Relative Affinity for Ligand (%): 489
--
binder: TNFRI126-S41 (receptor, Met-TNFRI126 superlead mutant made in E. coli) MDSVCPQGKYIHPQNNSICCTKCHKGTYVYNDCPGPGQDTDCRECESGSFTAHENFLPACLSCSKCRKEMGQVEISSCTVDRDTVCGCRKNQYRHYWSENLFQCFNCSLCLNGTVHLSCQEKQNTVC
Relative Affinity for Ligand (%): 432

Input line: Entry TNFRI126-S60 (receptor, Met-TNFRI126 superlead mutant made in E. coli) MDSVCPQGKYIHPQNNSICCTKCHKGTYVYNDCPGPGQDTDCRECESGSFTAHENFLPACLSCSKCRKEMGQVEISSCTVDRDTVCGCRKNQYRHYWSENLFQCFNCSLCLNGTVHLSCQENQNTVC : reported Relative Affinity for Ligand (%) = ?
Output line: 397

Input line: Look up Relative Affinity for Ligand (%): TNFRI126-S54 (receptor, Met-TNFRI126 superlead mutant made in E. coli) MDSVCPQGKYIHPQNNSICCTKCHKGTYVYNDCPGPGQDTDCRECESGSFTAIENFLPACLSCSKCRKEMGQVEISSCTVDRDTVCGCRKNQYRHYWSENLFQCFNCSLCLNGTVHLSCQENQNTVC
Output line: 448

Input line: What Relative Affinity for Ligand (%) value was documented for this binder, Met-TNFRI126 (receptor, also called Wild-type (TNFRI126); wild-type TNFRI) MDSVCPQGKYIHPQNNSICCTKCHKGTYLYNDCPGPGQDTDCRECESGSFTASENHLRHCLSCSKCRKEMGQVEISSCTVDRDTVCGCRKNQYRHYWSENLFQCFNCSLCLNGTVHLSCQEKQNTVC ?
Output line: 100

Input line: Value lookup for Relative Affinity for Ligand (%); key = TNFRI126-S57 (receptor, Met-TNFRI126 superlead mutant made in E. coli) MDSVCPQGKYIHPQNNSICCTKCHKGTYVYNDCPGPGQDTDCRECESGSFTAMENFLPACLSCSKCRKEMGQVEISSCTVDRDTVCGCRKNQYRHYWSENLFQCFNCSLCLNGTVHLSCQENQNTVC
Output line: 465

Input line: Requested field: Relative Affinity for Ligand (%). Item: TNFRI126-S31 (receptor, Met-TNFRI126 superlead mutant made in E. coli) MDSVCPQGKYIHPQNNSICCTKCHKGTYVYNDCPGPGQDTDCRECESGSFTAIENFLPACLSCSKCRKEMGQVEISSCTVDRDTVCGCRKNQYRHYWSENLFQCFNCSLCLNGTVHLSCQEKQNTVC
Output line: 457
